Listed next: entries and their corresponding pIC50.
- target_of_assay: NaV1.1 (Homo sapiens (Human), UniProt P35498)
- assay_remarks: Sodium Influx Assay (Flux), NaV1.1
- Type: cell-based
- conditions_used: Trex HEK293 cells, ANG2 dye; arithmetic mean
pIC50: −log10 of the molar value. Where a name gives a salt, the structure may show the parent alone.

- compound: "Cc1ccc(F)c(CN2CC[C@H](N(C)c3ccc(S(=O)(=O)Nc4cscn4)c(F)c3C)C2)n1 [Example 324, 2,2,2-trifluoroacetate]"
  pIC50: "< 4.52"
- compound: "CCN(c1ccc(S(=O)(=O)Nc2ncns2)cc1Cl)[C@H]1CCN(Cc2ccccc2)C1"
  pIC50: "< 4.52"
- compound: "O=S(=O)(Nc1nccs1)c1ccc(OC2CCN(Cc3ccccc3Cl)CC2)c(Cl)c1"
  pIC50: 5.17

QUERY: Record request: pIC50 value, item Cc1cccc(CN2CC[C@H](N(C)c3cc(F)c(S(=O)(=O)Nc4cscn4)c(F)c3C)C2)n1 [Example 104, formate]
RESULT: < 4.52

* * *

- target_of_assay: NaV1.6 (Homo sapiens (Human), UniProt Q9UQD0)
- assay_remarks: Sodium Influx Assay (Flux), NaV1.6
- conditions_used: read-out: Flux NaV1.6 IC50; Trex HEK293 cells, ANG2 dye; arithmetic mean
metric: IC50 (µM)

- compound: "CN(c1ccc(S(=O)(=O)Nc2cscn2)c(F)c1Cl)[C@H]1CCN([C@H]2CCc3ccccc32)C1 [Example 247, 2,2,2-trifluoroacetate]"
  target_of_assay: "NaV1.6 (Homo sapiens (Human), UniProt Q9UQD0)"
  IC50, µM: 0.469
- compound: "COc1ccc(CN2CCC(Oc3ccc(S(=O)(=O)Nc4nccs4)cc3Cl)CC2)cc1"
  target_of_assay: "NaV1.6 (Homo sapiens (Human), UniProt Q9UQD0)"
  IC50, µM: 3.67
- compound: "Cc1cc(S(=O)(=O)Nc2ccsn2)c(F)cc1N(C)[C@H]1CCN(Cc2ccccc2)C1 [Example 277, 2,2,2-trifluoroacetate]"
  target_of_assay: "NaV1.6 (Homo sapiens (Human), UniProt Q9UQD0)"
  IC50, µM: 0.153
- compound: "CN(c1cc(F)c(S(=O)(=O)Nc2cscn2)cc1Cl)[C@@H]1CN(Cc2ccccc2)CC12CC2 [Example 265, 2,2,2-trifluoroacetate]"
  target_of_assay: "NaV1.6 (Homo sapiens (Human), UniProt Q9UQD0)"
  IC50, µM: 4.79
- compound: "Cc1ccc(CN2CC[C@H](N(C)c3cc(F)c(S(=O)(=O)Nc4cscn4)cc3Cl)C2)c(F)c1"
  target_of_assay: "NaV1.6 (Homo sapiens (Human), UniProt Q9UQD0)"
  IC50, µM: 1.69

(1) O=S(=O)(Nc1cscn1)c1ccc(OC2CCN(C3(c4ccccc4)CC3)CC2)c(Cl)c1
(2) CC1(C)CN(Cc2ccccc2)CCC1Oc1ccc(S(=O)(=O)Nc2ncns2)cc1Cl (centres unmarked) [Example 2, 2,2,2-trifluoroacetate]
QUERY: Hey, between 1 and 2 which has a smaller measured IC50? Pick one and reply with its label.
RESULT: 2

(a) CC1(Oc2ccc(S(=O)(=O)Nc3nccs3)cc2Cl)CCN(Cc2cccc(Cl)c2)CC1
(b) O=S(=O)(Nc1nccs1)c1ccc(OC2CCN(Cc3ccc(F)cc3)CC2)c(Cl)c1 [Example 22, 2,2,2-trifluoroacetate]
QUERY: Hey, between a and b which has a smaller measured IC50? Pick one and reply with its label.
RESULT: b
(b: 3.64 µM, a: 5.62 µM)
